# measurement.target: Flt4 (Homo sapiens, UniProt P35916)
# Construct: Eurofins Pharma Discovery Services (contract assay service)
# Sequence (P35916 25-1363, species assumed): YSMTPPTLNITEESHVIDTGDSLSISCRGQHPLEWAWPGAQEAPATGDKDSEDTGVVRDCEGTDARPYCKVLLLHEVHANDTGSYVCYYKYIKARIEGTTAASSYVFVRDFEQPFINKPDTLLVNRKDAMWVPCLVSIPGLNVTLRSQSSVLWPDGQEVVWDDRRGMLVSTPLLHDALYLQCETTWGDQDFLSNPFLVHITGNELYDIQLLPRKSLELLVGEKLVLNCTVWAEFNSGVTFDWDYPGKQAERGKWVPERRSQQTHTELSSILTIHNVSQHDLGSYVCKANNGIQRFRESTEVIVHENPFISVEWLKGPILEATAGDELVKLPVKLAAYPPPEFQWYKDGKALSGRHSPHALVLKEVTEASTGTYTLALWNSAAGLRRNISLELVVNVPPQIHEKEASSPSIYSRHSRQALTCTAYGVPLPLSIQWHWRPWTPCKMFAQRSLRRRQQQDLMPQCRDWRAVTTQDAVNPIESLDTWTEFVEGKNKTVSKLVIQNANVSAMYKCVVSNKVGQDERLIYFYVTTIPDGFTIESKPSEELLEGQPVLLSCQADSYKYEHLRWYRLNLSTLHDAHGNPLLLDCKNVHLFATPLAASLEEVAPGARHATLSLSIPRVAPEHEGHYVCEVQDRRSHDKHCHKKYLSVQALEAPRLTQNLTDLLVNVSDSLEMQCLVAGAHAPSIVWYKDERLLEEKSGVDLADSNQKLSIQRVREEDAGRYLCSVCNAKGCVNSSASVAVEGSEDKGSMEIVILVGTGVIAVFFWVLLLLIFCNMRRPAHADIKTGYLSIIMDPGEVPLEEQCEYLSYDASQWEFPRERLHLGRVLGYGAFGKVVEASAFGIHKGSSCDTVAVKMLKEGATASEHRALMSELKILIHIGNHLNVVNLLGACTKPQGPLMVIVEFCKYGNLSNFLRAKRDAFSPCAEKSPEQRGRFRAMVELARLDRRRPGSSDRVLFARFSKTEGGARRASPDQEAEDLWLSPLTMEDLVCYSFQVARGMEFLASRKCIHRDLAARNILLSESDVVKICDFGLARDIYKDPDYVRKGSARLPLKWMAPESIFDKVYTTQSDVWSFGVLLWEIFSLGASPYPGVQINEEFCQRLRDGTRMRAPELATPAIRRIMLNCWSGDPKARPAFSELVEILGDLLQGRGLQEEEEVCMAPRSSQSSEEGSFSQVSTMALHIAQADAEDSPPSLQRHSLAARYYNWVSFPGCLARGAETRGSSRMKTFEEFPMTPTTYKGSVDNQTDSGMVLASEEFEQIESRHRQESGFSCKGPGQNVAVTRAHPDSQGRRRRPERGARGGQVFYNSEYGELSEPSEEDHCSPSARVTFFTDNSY
# test.name: kinase selectivity panel
# Assay type: biochemical
# measurement.parameters: biochemical dose response, duplicate; read-out: Inhibition of indicated activity (IC50, μM): Ftl4
value.kind: IC50

INSERT INTO measurements (molecule, value_measured) VALUES
  ('Cn1cc(-c2cccc(-c3nc(C(=O)NC4C5CC6CC4CC(O)(C6)C5)c(N)nc3N)c2)cn1 (stereo not shown)', '3.13 µM');

* * *

# measurement.target: SAPK3 (Homo sapiens)
# Construct: purchased Eurofins Pharma Discovery Services (KinaseProfiler; Cerep BioPrint panel)
# Sequence (P53778 1-367): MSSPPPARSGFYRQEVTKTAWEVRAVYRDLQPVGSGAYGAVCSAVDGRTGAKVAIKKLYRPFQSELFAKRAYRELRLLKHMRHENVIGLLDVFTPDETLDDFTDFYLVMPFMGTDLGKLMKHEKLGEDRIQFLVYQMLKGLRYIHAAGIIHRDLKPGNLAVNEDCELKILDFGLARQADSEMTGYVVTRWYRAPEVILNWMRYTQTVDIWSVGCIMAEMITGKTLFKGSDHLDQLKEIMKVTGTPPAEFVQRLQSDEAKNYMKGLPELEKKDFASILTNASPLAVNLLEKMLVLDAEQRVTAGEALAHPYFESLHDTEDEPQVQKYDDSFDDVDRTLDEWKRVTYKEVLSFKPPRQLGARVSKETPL
# test.name: kinase selectivity panel
# Format: biochemical
# measurement.parameters: read-out: percentage of control activity (POC), SAPK3
value.kind: remaining activity at 10 µM (%)

INSERT INTO results (compound, measurement_target, value_kind, result_unit, value_measured) VALUES
  ('COc1c(NC(=O)c2ccc(C)c(-c3nnc4c(NCC(C)(C)C)nccn34)c2)cc(C(C)(C)C)cc1NS(C)(=O)=O [compound 7, reference compound]', 'SAPK3 (Homo sapiens)', 'remaining activity at 10 µM', '%', 67),
  ('CS(=O)(=O)N1CCN(c2ccc(Nc3ncc(C(N)=O)c(NC4CC4)n3)cc2)CC1', 'SAPK3 (Homo sapiens)', 'remaining activity at 10 µM', '%', 64),
  ('CC(C)(C)N1CCC(c2cc(-c3ccc(F)cc3Cl)c3cc[n+]([O-])c(-c4c(Cl)cccc4Cl)c3n2)CC1', 'SAPK3 (Homo sapiens)', 'remaining activity at 10 µM', '%', 75),
  ('Cn1cc(-c2cccc(-c3nc(C(=O)NC4C5CC6CC4CC(O)(C6)C5)c(N)nc3N)c2)cn1 (centres unmarked)', 'SAPK3 (Homo sapiens)', 'remaining activity at 10 µM', '%', 92),
  ('Cc1ccc(C(=O)NCC2CC2)cc1-c1ccc2c(c1)NC(=O)C21CCCC1', 'SAPK3 (Homo sapiens)', 'remaining activity at 10 µM', '%', 78);

* * *

# measurement.target: cSRC (Homo sapiens, UniProt P12931)
# Construct: purchased Eurofins Pharma Discovery Services (KinaseProfiler; Cerep BioPrint panel)
# Sequence (P12931 whole entry): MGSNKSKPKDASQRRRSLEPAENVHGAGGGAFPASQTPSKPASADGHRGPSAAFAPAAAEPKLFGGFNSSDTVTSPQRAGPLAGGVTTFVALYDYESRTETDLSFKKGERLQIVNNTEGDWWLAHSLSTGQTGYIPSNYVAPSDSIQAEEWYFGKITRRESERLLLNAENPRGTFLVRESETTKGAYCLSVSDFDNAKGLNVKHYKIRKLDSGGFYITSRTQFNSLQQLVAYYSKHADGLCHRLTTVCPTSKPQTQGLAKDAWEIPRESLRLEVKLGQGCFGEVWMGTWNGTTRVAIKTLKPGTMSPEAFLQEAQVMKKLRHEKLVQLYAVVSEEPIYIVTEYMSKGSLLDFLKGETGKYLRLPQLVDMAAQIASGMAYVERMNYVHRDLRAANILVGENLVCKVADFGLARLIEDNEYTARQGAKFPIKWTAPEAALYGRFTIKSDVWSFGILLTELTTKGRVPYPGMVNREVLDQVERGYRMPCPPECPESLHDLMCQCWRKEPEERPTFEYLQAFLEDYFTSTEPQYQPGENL
# test.name: kinase selectivity panel
# Type: biochemical
# measurement.parameters: read-out: percentage of control activity (POC), cSRC
value.kind: remaining activity at 10 µM (%)

INSERT INTO measurements (compound, value_kind, value_measured) VALUES
  ('CC(C)(C)N1CCC(c2cc(-c3ccc(F)cc3Cl)c3cc[n+]([O-])c(-c4c(Cl)cccc4Cl)c3n2)CC1', 'remaining activity at 10 µM', 107),
  ('Cn1cc(-c2cccc(-c3nc(C(=O)NC4C5CC6CC4CC(O)(C6)C5)c(N)nc3N)c2)cn1 (centres unmarked)', 'remaining activity at 10 µM', 69),
  ('Cc1ccc(C(=O)NCC2CC2)cc1-c1ccc2c(c1)NC(=O)C21CCCC1', 'remaining activity at 10 µM', 103),
  ('COc1c(NC(=O)c2ccc(C)c(-c3nnc4c(NCC(C)(C)C)nccn34)c2)cc(C(C)(C)C)cc1NS(C)(=O)=O [compound 7, reference compound]', 'remaining activity at 10 µM', 103),
  ('CS(=O)(=O)N1CCN(c2ccc(Nc3ncc(C(N)=O)c(NC4CC4)n3)cc2)CC1', 'remaining activity at 10 µM', 16);

* * *

# measurement.target: Itk (Homo sapiens, UniProt Q08881)
# Construct: purchased Eurofins Pharma Discovery Services (KinaseProfiler; Cerep BioPrint panel)
# Sequence (Q08881 1-620): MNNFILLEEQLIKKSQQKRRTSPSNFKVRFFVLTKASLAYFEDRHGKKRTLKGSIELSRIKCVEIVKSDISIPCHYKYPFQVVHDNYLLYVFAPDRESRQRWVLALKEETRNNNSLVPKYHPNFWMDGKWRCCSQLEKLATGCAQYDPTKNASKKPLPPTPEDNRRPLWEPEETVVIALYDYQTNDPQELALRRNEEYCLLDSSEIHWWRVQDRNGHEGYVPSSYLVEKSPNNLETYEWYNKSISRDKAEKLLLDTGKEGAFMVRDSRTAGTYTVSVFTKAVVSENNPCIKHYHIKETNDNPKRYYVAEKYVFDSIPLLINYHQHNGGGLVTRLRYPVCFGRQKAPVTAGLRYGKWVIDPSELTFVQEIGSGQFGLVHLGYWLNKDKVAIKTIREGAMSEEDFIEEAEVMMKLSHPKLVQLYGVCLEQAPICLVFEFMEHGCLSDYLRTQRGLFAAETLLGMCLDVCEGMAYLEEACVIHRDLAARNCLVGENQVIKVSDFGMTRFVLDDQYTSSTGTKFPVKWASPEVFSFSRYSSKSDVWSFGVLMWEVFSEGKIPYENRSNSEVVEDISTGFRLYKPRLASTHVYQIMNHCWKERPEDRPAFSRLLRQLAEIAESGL
# test.name: kinase selectivity panel
# Format: biochemical
# measurement.parameters: read-out: percentage of control activity (POC), Itk
value.kind: remaining activity at 10 µM (%)

INSERT INTO results (molecule, result_unit, value_measured) VALUES
  ('CS(=O)(=O)N1CCN(c2ccc(Nc3ncc(C(N)=O)c(NC4CC4)n3)cc2)CC1', '%', 3),
  ('Cn1cc(-c2cccc(-c3nc(C(=O)NC4C5CC6CC4CC(O)(C6)C5)c(N)nc3N)c2)cn1 (centres unmarked)', '%', 109),
  ('COc1c(NC(=O)c2ccc(C)c(-c3nnc4c(NCC(C)(C)C)nccn34)c2)cc(C(C)(C)C)cc1NS(C)(=O)=O [compound 7, reference compound]', '%', 114),
  ('Cc1ccc(C(=O)NCC2CC2)cc1-c1ccc2c(c1)NC(=O)C21CCCC1', '%', 103),
  ('CC(C)(C)N1CCC(c2cc(-c3ccc(F)cc3Cl)c3cc[n+]([O-])c(-c4c(Cl)cccc4Cl)c3n2)CC1', '%', 110);

* * *

remaining activity at 10 µM overview
# measurement.target: Mnk2 (Homo sapiens)
# Construct: purchased Eurofins Pharma Discovery Services (KinaseProfiler; Cerep BioPrint panel)
# Sequence (Q9HBH9 whole entry): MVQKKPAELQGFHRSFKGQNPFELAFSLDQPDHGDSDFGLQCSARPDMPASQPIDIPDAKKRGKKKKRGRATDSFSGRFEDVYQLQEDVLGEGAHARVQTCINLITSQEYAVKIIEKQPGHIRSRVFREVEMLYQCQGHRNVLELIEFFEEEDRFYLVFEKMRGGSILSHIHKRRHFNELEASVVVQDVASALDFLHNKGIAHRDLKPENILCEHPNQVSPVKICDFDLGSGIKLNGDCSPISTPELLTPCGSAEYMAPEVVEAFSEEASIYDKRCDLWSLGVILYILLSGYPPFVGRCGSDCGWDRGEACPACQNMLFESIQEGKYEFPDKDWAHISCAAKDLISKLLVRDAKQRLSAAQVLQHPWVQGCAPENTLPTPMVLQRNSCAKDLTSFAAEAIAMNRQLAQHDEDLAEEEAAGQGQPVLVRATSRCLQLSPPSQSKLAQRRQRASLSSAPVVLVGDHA
# test.name: kinase selectivity panel
# Assay type: biochemical
# measurement.parameters: read-out: percentage of control activity (POC), Mnk2
# Procedure: Kinase selectivity was evaluated at Eurofins Pharma Discovery Services using a selection of 125 representative kinases tested at a concentration of 10 μM in duplicate (S3 Table). IC50 values for selected activities were further characterized at 9 duplicate concentrations. DNA-PK activity was determined at the SelectScreen® Biochemical kinase Profiling Service of Thermo Fisher Scientific.
value.kind: remaining activity at 10 µM

INSERT INTO assay_data (compound, measurement_target, value_kind, value_measured) VALUES
  ('CC(C)(C)N1CCC(c2cc(-c3ccc(F)cc3Cl)c3cc[n+]([O-])c(-c4c(Cl)cccc4Cl)c3n2)CC1', 'Mnk2 (Homo sapiens)', 'remaining activity at 10 µM', '100%'),
  ('Cc1ccc(C(=O)NCC2CC2)cc1-c1ccc2c(c1)NC(=O)C21CCCC1', 'Mnk2 (Homo sapiens)', 'remaining activity at 10 µM', '91%'),
  ('CS(=O)(=O)N1CCN(c2ccc(Nc3ncc(C(N)=O)c(NC4CC4)n3)cc2)CC1', 'Mnk2 (Homo sapiens)', 'remaining activity at 10 µM', '84%'),
  ('Cn1cc(-c2cccc(-c3nc(C(=O)NC4C5CC6CC4CC(O)(C6)C5)c(N)nc3N)c2)cn1 (centres unmarked)', 'Mnk2 (Homo sapiens)', 'remaining activity at 10 µM', '86%'),
  ('COc1c(NC(=O)c2ccc(C)c(-c3nnc4c(NCC(C)(C)C)nccn34)c2)cc(C(C)(C)C)cc1NS(C)(=O)=O [compound 7, reference compound]', 'Mnk2 (Homo sapiens)', 'remaining activity at 10 µM', '98%');

* * *

# measurement.target: RIPK2 (Homo sapiens)
# Construct: purchased Eurofins Pharma Discovery Services (KinaseProfiler; Cerep BioPrint panel)
# Sequence (O43353 whole entry): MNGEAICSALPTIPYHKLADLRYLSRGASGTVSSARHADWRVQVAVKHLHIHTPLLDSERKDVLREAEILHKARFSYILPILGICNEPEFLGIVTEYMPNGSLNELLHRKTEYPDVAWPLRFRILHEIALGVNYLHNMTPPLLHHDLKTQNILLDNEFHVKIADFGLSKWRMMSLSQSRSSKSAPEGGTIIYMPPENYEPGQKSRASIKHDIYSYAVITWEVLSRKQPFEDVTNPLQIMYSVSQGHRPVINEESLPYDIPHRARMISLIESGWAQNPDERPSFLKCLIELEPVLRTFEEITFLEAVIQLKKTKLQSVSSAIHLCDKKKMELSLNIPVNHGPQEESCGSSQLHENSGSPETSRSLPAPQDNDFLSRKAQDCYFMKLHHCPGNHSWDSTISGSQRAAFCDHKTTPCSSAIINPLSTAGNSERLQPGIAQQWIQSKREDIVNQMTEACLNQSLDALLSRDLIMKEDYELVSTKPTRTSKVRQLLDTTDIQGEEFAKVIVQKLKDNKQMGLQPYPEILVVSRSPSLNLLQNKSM
# test.name: kinase selectivity panel
# Format: biochemical
# measurement.parameters: read-out: percentage of control activity (POC), RIPK2
Measured remaining activity at 10 µM, listed per entry for reference.
value.kind: remaining activity at 10 µM (%)

INSERT INTO measurements (compound, value_kind, result_unit, value_measured) VALUES
  ('CS(=O)(=O)N1CCN(c2ccc(Nc3ncc(C(N)=O)c(NC4CC4)n3)cc2)CC1', 'remaining activity at 10 µM', '%', 81),
  ('Cn1cc(-c2cccc(-c3nc(C(=O)NC4C5CC6CC4CC(O)(C6)C5)c(N)nc3N)c2)cn1 (centres unmarked)', 'remaining activity at 10 µM', '%', 61),
  ('CC(C)(C)N1CCC(c2cc(-c3ccc(F)cc3Cl)c3cc[n+]([O-])c(-c4c(Cl)cccc4Cl)c3n2)CC1', 'remaining activity at 10 µM', '%', 61),
  ('Cc1ccc(C(=O)NCC2CC2)cc1-c1ccc2c(c1)NC(=O)C21CCCC1', 'remaining activity at 10 µM', '%', 94),
  ('COc1c(NC(=O)c2ccc(C)c(-c3nnc4c(NCC(C)(C)C)nccn34)c2)cc(C(C)(C)C)cc1NS(C)(=O)=O [compound 7, reference compound]', 'remaining activity at 10 µM', '%', 100);
